Test: Pharmacokinetics (PK) in SD rats
Format: in vivo
Settings: SD, plasma, po; rat, intragastric administration, 5 mg/kg
Below, each of the compounds is paired with its reported AUC(0-inf) value.
Answer with a number only, understood to be in ng·h/mL.

Example compounds with recorded AUC(0-inf):
input: Record request: AUC(0-inf) value, item CCOc1ccc(CNc2nc(N3CC4CC4C3)ncc2C(=O)N[C@H]2CC[C@H](O)CC2)cc1C (stereo partly shown) [Compound 51]
output: 5800

input: Look up AUC(0-inf): COc1ccc(CNc2nc(N3CC4CC4C3)ncc2C(=O)N[C@H]2CC[C@H](O)CC2)cc1F (stereo partly shown) [Compound 48]
output: 2330

input: So what's the measured AUC(0-inf) for this one? CCOc1ccc(CNc2nc(N3CC4CC4C3)ncc2C(=O)N[C@H]2CC[C@H](O)CC2)cc1Cl (stereo partly shown) [Compound 52]
output: 6000

input: Could you tell me which AUC(0-inf) is on file for CCOc1ccc(CNc2nc(N3CC4CC4C3)ncc2C(=O)N[C@H]2CC[C@H](O)CC2)cc1C(F)(F)F (stereo partly shown) [Compound 54] ?
output: 1420

input: Endpoint output: AUC(0-inf) of COc1ccc(CNc2nc(N3CC4CC4C3)ncc2C(=O)N[C@H]2CC[C@H](O)CC2)cc1C(F)(F)F (stereo partly shown) [Compound 53] . Value?
output: 917

Continuing:
input: Value lookup for AUC(0-inf); key = COc1ccc(CNc2nc(N3CC4CC4C3)ncc2C(=O)N[C@H]2CC[C@H](O)CC2)cc1C (stereo partly shown) [Compound 50]
output: 4720

input: Given CCOc1ccc(CNc2nc(N3CC4CC4C3)ncc2C(=O)N[C@H]2CC[C@H](O)CC2)cc1F (stereo partly shown) [Compound 49] , state its recorded AUC(0-inf).
output: 5840

###

Assay: Pharmacokinetics (PK) in SD rats
Format: in vivo
Settings: rat, intravenous injection, 2 mg/kg
assay_endpoint: Vss_obs (L/kg)
Dear colleague, please return just the value in L/kg, with no unit written.

input: Would you kindly share the measured Vss_obs for CCOc1ccc(CNc2nc(N3CC4CC4C3)ncc2C(=O)N[C@H]2CC[C@H](O)CC2)cc1F (stereo partly shown) [Compound 49] ?
output: 2.46

input: I have this molecule here, CCOc1ccc(CNc2nc(N3CC4CC4C3)ncc2C(=O)N[C@H]2CC[C@H](O)CC2)cc1C (stereo partly shown) [Compound 51] , and I need its recorded Vss_obs.
output: 5.58

input: For CCOc1ccc(CNc2nc(N3CC4CC4C3)ncc2C(=O)N[C@H]2CC[C@H](O)CC2)cc1C(F)(F)F (stereo partly shown) [Compound 54] , what is its reported Vss_obs?
output: 3.87

Others:
input: Suppose we examine the molecule COc1ccc(CN=c2[nH]c(N3CCC[C@H]3CO)ncc2C(=O)NCc2ncccn2)cc1Cl [Avanafil, reference compound] ; what Vss_obs value has been reported?
output: 3.56

###

Experiment: Pharmacokinetics (PK) in SD rats
Assay type: in vivo
Settings: SD, plasma, po; rat, intragastric administration, 2 mg/kg
Listing: half-life of selected molecules
Supply the numeric figure in min, leaving out any unit text.

Consider the worked cases shown below.
input: Fill in: half-life of COc1ccc(CNc2nc(N3CCC4(CC4)C3)ncc2C(=O)N[C@H]2CC[C@H](O)CC2)cc1Cl [Compound 38] is ___
output: 127

input: # query: half-life of entry "COc1ccc(CNc2nc(N3CCC4(CC4)C3)ncc2C(=O)NCc2ncccn2)cc1Cl"
output: 54.6

input: For the molecule shown here, COc1ccc(CNc2nc(N3CC4CC4C3)ncc2C(=O)NCc2ccccn2)cc1Cl (stereo not drawn) , give the reported half-life.
output: 177

input: Which half-life is reported for this molecule? "COc1ccc(CNc2nc(N3CCC4(CC4)C3)ncc2C(=O)NCc2ccccn2)cc1Cl"
output: 215

input: Which half-life is listed for COc1ccc(CNc2nc(N3CCC4(CC4)C3)ncc2C(=O)N[C@H]2CC[C@H](O)CC2)cc1Cl (stereo in doubt) [Compound 43] ?
output: 199

Proceed to the following item.
input: Need half-life, item COc1ccc(CNc2nc(N3CC4CC4C3CO)ncc2C(=O)NCc2ccccc2)cc1Cl (stereo not drawn)
output: 136

###

Cl_obs: recorded values
Experiment: Pharmacokinetics (PK) in SD rats
Type: in vivo
Settings: rat, intravenous injection, 2 mg/kg
I only need the number, in mL/min/kg, no unit after it.

Take a look at these entries with their results.
input: What value of measured Cl_obs is listed for CCOc1ccc(CNc2nc(N3CC4CC4C3)ncc2C(=O)N[C@H]2CC[C@H](O)CC2)cc1F (some centres unmarked) ?
output: 8.67

input: I am curious: what Cl_obs value has been reported for CCOc1ccc(CNc2nc(N3CC4CC4C3)ncc2C(=O)N[C@H]2CC[C@H](O)CC2)cc1Cl (some centres unmarked) ?
output: 9

input: I am curious: what Cl_obs value has been reported for COc1ccc(CNc2nc(N3CC4CC4C3)ncc2C(=O)N[C@H]2CC[C@H](O)CC2)cc1C(F)(F)F (some centres unmarked) ?
output: 22.3

input: Please look up its Cl_obs: COc1ccc(CNc2nc(N3CC4CC4C3)ncc2C(=O)N[C@H]2CC[C@H](O)CC2)cc1C (some centres unmarked)
output: 13

input: # Cl_obs lookup, item COc1ccc(CN=c2[nH]c(N3CCC[C@H]3CO)ncc2C(=O)NCc2ncccn2)cc1Cl [Avanafil, reference compound]
output: 88.5

***
input: I'd like to know its Cl_obs. The molecule in question is CCOc1ccc(CNc2nc(N3CC4CC4C3)ncc2C(=O)N[C@H]2CC[C@H](O)CC2)cc1C (some centres unmarked)
output: 7.83

input: Need Cl_obs of CCOc1ccc(CNc2nc(N3CC4CC4C3)ncc2C(=O)N[C@H]2CC[C@H](O)CC2)cc1C(F)(F)F (some centres unmarked) , thanks.
output: 23.8

input: So what does the record say about Cl_obs for COc1ccc(CNc2nc(N3CC4CC4C3)ncc2C(=O)N[C@H]2CC[C@H](O)CC2)cc1F (some centres unmarked) ?
output: 17

###

Biological target: hERG channel (Homo sapiens (Human), UniProt Q12809)
Sequence (Q12809 whole entry): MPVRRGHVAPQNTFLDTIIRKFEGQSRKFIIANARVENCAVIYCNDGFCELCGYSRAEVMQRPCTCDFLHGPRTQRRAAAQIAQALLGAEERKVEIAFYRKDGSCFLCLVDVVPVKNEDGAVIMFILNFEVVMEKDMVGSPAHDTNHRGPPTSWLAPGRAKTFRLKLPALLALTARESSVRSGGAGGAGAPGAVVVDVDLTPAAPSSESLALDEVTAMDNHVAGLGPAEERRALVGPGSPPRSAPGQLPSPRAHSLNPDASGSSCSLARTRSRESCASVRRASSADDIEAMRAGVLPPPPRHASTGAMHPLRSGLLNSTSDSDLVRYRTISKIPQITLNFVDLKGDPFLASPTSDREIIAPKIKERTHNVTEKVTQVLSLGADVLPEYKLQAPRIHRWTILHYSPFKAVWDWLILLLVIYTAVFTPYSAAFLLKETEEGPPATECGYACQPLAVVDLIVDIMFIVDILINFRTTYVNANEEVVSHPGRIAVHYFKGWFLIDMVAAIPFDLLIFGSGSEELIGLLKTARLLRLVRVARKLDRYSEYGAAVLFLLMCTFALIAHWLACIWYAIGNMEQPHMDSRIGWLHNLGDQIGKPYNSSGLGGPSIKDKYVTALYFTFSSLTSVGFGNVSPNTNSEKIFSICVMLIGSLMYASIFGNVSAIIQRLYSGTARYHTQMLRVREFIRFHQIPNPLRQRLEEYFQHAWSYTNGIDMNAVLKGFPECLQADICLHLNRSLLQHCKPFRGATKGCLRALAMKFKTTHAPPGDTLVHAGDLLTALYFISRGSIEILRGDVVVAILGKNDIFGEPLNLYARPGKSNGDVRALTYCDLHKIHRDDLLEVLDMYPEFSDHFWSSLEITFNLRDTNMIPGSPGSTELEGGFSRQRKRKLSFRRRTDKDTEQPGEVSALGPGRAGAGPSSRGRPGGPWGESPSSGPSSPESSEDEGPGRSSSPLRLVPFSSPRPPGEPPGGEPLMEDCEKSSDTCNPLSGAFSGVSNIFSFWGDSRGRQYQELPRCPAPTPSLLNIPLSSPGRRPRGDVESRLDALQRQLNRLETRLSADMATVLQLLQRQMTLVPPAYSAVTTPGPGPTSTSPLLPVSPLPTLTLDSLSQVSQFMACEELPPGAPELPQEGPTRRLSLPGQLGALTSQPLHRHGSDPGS
Experiment: hERG potassium channel whole-cell patch clamp on CHO-K1 cell line
assay_endpoint: IC50

input: I'd like to know its IC50. The compound in question is COc1ccc(CNc2nc(N3Cc4cccnc4C3)ncc2C(=O)N[C@H]2CC[C@H](O)CC2)cc1Cl [WO-93, reference compound]
output: > 30 µM

input: For COc1ccc(CN=c2[nH]c(N3CCC[C@H]3CO)ncc2C(=O)NCc2ncccn2)cc1Cl [Avanafil, reference compound] , what is its reported IC50?
output: 14.6 µM

input: Recorded IC50 of COc1ccc(CNc2nc(N3CC4CC4C3)ncc2C(=O)NCc2ccccc2)cc1Cl (stereo not shown) , please.
output: > 27.8 µM

input: Entry COc1ccc(CNc2nc(N3CC4CC4C3)ncc2C(=O)N[C@H]2CC[C@H](O)CC2)cc1C (stereo partly shown) : reported IC50 = ?
output: > 30 µM

input: Endpoint output: IC50 of COc1ccc(CNc2nc(N3CCC[C@H]3CO)ncc2C(=O)N[C@H]2CC[C@H](O)CC2)cc1Cl [WO-88, reference compound] . Value?
output: > 30 µM

---
input: Bench note: what IC50 did COc1ccc(CNc2nc(N3CC4CC4C3)ncc2C(=O)N[C@H]2CC[C@H](O)CC2)cc1Cl (stereo partly shown) show?
output: > 30 µM

input: Param item = COc1ccc(CNc2nc(N3CC4CC4C3)ncc2C(=O)N[C@H]2CC[C@H](O)CC2)cc1F (stereo partly shown) ; retrieve measured IC50.
output: 8.76 µM

###

Test: Pharmacokinetics (PK) in SD rats
Type: in vivo
Details: SD, plasma, po; rat, intragastric administration, 5 mg/kg
Assign labels as follows, please: Condition met for half-life below 5 h; Condition not met for half-life equal to or exceeding 5 h.

Previously resolved entries follow.
input: Record CCOc1ccc(CNc2nc(N3CC4CC4C3)ncc2C(=O)N[C@H]2CC[C@H](O)CC2)cc1F (stereo partly drawn) : is its half-life strictly below 5 h?
output: Condition met

input: Does the reported half-life of COc1ccc(CNc2nc(N3CC4CC4C3)ncc2C(=O)N[C@H]2CC[C@H](O)CC2)cc1C (stereo partly drawn) stay below 5 h?
output: Condition not met

input: # check: half-life < 5 h for CCOc1ccc(CNc2nc(N3CC4CC4C3)ncc2C(=O)N[C@H]2CC[C@H](O)CC2)cc1Cl (stereo partly drawn)
output: Condition not met

input: Lab note: half-life threshold 5 h. Does this molecule come in strictly under it? CCOc1ccc(CNc2nc(N3CC4CC4C3)ncc2C(=O)N[C@H]2CC[C@H](O)CC2)cc1C(F)(F)F (stereo partly drawn)
output: Condition met

input: Quick check: half-life of CCOc1ccc(CNc2nc(N3CC4CC4C3)ncc2C(=O)N[C@H]2CC[C@H](O)CC2)cc1C (stereo partly drawn) under 5 h?
output: Condition not met

New cases:
input: Please state whether half-life is below 5 h for COc1ccc(CNc2nc(N3CC4CC4C3)ncc2C(=O)N[C@H]2CC[C@H](O)CC2)cc1F (stereo partly drawn)
output: Condition met
